Reference source for all entries: patent US20100004459A1

measured_attribute: melting point

CCC(C)(C)COc1ccc(-c2ncccc2C(=O)O)cc1C#N ... 166 to 167 °C
N#Cc1cc(-c2ncccc2C(=O)O)ccc1OCCCCc1ccc(C(F)(F)F)cc1 ... 165 to 166 °C
N#Cc1cc(-c2ncccc2C(=O)O)ccc1OCC1CC1 ... 203 to 204 °C
CC1(COc2ccc(-c3ncccc3C(=O)O)cc2C#N)CCCCC1 ... 100 to 101 °C
N#Cc1cc(-c2ncccc2C(=O)O)ccc1OCCCc1ccc(F)cc1 ... 177 to 178 °C

Which melting point value is on record for `N#Cc1cc(-c2ncccc2C(=O)O)ccc1OCCCOc1ccc(OC(F)(F)F)cc1Cl` ?
159 to 160 °C

----------
Target: xanthine oxidase (Bos taurus, UniProt P80457)
Construct: derived from milk; manufactured by Sigma; purchased Sigma; host or cells: milk (natural source)
Sequence (P80457 whole entry): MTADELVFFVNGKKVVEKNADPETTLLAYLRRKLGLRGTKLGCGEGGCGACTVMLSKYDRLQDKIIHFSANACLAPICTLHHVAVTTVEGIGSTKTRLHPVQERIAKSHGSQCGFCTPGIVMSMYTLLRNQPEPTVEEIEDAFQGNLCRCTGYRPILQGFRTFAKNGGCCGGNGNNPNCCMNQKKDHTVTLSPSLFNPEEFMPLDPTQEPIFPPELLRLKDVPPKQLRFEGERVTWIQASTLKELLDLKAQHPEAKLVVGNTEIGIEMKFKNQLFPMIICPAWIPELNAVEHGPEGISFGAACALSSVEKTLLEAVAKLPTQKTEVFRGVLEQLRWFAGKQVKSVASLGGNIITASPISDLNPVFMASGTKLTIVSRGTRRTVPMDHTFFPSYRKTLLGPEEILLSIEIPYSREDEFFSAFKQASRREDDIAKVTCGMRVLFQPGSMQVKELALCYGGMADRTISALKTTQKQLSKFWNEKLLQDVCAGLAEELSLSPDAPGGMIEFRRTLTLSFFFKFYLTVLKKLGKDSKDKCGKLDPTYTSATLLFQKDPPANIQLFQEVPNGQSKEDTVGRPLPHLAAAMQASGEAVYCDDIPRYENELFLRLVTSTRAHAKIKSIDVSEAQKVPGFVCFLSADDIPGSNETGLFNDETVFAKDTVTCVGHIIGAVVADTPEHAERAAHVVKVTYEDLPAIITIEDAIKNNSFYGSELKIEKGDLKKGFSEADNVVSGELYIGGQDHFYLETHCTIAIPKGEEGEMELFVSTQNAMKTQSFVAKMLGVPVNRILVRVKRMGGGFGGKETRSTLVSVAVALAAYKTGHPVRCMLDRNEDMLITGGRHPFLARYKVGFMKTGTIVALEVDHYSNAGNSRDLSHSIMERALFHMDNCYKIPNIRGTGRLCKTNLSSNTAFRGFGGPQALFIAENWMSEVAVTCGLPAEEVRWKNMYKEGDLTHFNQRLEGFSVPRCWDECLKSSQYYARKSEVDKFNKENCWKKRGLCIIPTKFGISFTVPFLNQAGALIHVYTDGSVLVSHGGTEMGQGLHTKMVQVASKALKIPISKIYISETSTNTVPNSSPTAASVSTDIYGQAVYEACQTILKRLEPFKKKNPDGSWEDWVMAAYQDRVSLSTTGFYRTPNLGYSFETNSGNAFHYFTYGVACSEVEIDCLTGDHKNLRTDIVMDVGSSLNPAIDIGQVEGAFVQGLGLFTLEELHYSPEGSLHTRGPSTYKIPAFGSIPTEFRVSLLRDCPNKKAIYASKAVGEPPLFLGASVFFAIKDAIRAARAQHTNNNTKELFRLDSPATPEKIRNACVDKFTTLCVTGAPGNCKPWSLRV
Test: Test for xanthine oxidase inhibitory activity
Format: biochemical
Conditions: xanthine oxidase derived from milk (Sigma); substrate xanthine; uric acid production at OD 292 nm, 37° C.
Protocol: Evaluation of inhibitory activity of the present invention to xanthine oxidase was conducted using xanthine as a substrate by measuring the amount of uric acid produced by xanthine oxidase which is an oxidizing enzyme therefor. […] The changes with elapse of time in OD 292 nm based on the production of uric acid was measured using a microplate spectrophotometer warmed at 37° C. whereby the initial reaction velocity was measured. […]
Mark each entry Yes if its IC50 sits below 50 nM, and No for all others.

Observe how each entry below is paired with its result.
N#Cc1cc(-c2ncccc2C(=O)O)ccc1OCCc1ccccc1C(F)(F)F [Example 56] ... Yes
CC1(COc2ccc(-c3ncccc3C(=O)O)cc2C#N)CCCCC1 [Example 77] ... Yes
CCCCCCOc1ccc(-c2ncccc2C(=O)O)cc1C#N [Example 49] ... No
CC(C)(COc1ccc(-c2ncccc2C(=O)O)cc1C#N)Cc1ccccc1 [Example 80] ... Yes
CC(C)(COc1ccc(-c2ncccc2C(=O)O)cc1C#N)Cc1ccccc1C(F)(F)F [Example 132] ... Yes
Cc1ccccc1CCOc1ccc(-c2ncccc2C(=O)O)cc1C#N [Example 102] ... No

Given N#Cc1cc(-c2ncccc2C(=O)O)ccc1OCC1CCCCC1 [Example 47] , is recorded IC50 strictly lower than 50 nM?
Yes

Given the entry N#Cc1cc(-c2ncccc2C(=O)O)ccc1OCCCCc1ccc(C(F)(F)F)cc1 [Example 63] , would its reported IC50 be below 50 nM?
No

Problem: For the compound CC(C)(C)c1cc(CCCOc2ccc(-c3ncccc3C(=O)O)cc2C#N)cc(C(C)(C)C)c1O [Example 88] , is IC50 under 50 nM?
Yes

# TODO verify IC50 < 50 nM strictly for this compound: N#Cc1cc(-c2ncccc2C(=O)O)ccc1OCCC1CCCCC1 [Example 48]
Yes

Problem: For the compound CCCCC(C)(C)COc1ccc(-c2ncccc2C(=O)O)cc1C#N [Example 73] , is IC50 under 50 nM?
Yes

Is the reported IC50 for N#Cc1cc(-c2ncccc2C(=O)O)ccc1OCC1CCC1 [Example 46] strictly below 50 nM?
No

Regarding CC(C)(C)COc1ccc(-c2ncc(F)cc2C(=O)O)cc1C#N [Example 140] , kindly confirm whether its IC50 is beneath 50 nM.
Yes

Does N#Cc1cc(-c2ncccc2C(=O)O)ccc1OCC1CCCC1 [Example 75] have IC50 strictly under 50 nM?
Yes

A record lists CC(C)(COc1ccc(-c2ncccc2C(=O)O)cc1C#N)Cc1ccc(C(F)(F)F)cc1 [Example 106] . Is its IC50 below 50 nM?
Yes

Find out if reported IC50 for N#Cc1cc(-c2ncccc2C(=O)O)ccc1OCCCc1ccc(F)cc1 [Example 61] is less than 50 nM
No

Is 50 nM strictly greater than the compound's reported IC50? compound: CC(C)(CCc1ccccc1)COc1ccc(-c2ncccc2C(=O)O)cc1C#N [Example 81]
Yes

Answer whether the compound COc1ccc(C(C)(C)COc2ccc(-c3ncccc3C(=O)O)cc2C#N)cc1 [Example 122] has IC50 strictly less than 50 nM
No
